Target: A1 receptors (Rattus norvegicus, UniProt P25099)
Construct: from tissue; host or cells: rat cerebral cortex membranes
Sequence (P25099 1-326): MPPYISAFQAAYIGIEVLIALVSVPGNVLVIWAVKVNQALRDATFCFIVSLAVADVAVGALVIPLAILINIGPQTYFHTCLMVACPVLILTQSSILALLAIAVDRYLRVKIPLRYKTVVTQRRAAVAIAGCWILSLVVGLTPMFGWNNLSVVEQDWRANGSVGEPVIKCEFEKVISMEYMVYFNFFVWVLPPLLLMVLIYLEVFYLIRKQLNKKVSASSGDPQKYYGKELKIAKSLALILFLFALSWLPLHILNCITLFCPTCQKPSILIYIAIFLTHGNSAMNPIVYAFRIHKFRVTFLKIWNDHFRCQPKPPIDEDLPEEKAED
Experiment: inhibition of [^3H]PIA binding to rat cerebral cortex membranes
Details: result in words
reported metric: Ki-values for inhibition of [^3H]PIA binding

{"smiles": "COc1cc(CCNc2ncnc3c2ncn3C)cc(OC)c1OC", "study system": "A1 receptors (Rattus norvegicus, UniProt P25099)", "observed": "very weak antagonists"}
{"smiles": "Cn1cnc2c(NCCc3ccccc3)ncnc21", "study system": "A1 receptors (Rattus norvegicus, UniProt P25099)", "observed": "very weak antagonists"}
